Exercise: for every item that follows, state its recorded Ki.
target_entity: T1, human glucagon receptor (human, UniProt P47871 26-477)
T1 construct: whole, on cells; also called hGcgR; GcgR
assay: [125I]-Gcg competition SPA, hGcgR membranes
Number plus unit, in that order.

Q: Given the entry XXEGTFTSDYSIXLDKKAQXAFIEYLIAGGPSSGAPPPS (D-Tyr1; Aib2; αMeL13; K17((2-[2-(2-Amino-ethoxy)-ethoxy]-acetyl)2-(γ-Glu)-CO-(CH2)18-CO2H); Aib20; C-terminal NH2) [Example 340] , report its measured Ki.
A: 250 nM

Q: Would you kindly share the measured Ki for XXEGTFTSDYSIXLDXKAQXAFVEYLIEGGPSSGAPPPS (D-Tyr1; Aib2; αMeL13; Orn16; K17((2-[2-(2-Amino-ethoxy)-ethoxy]-acetyl)2-(γ-Glu)-CO-(CH2)18-CO2H); Aib20; C-terminal NH2) [Example 360] ?
A: 485 nM

Q: Report Ki for YXEGTXTSDYSIXLDKKAQXEFIXYLIEGGPSSGAPPPS (Aib2; αMeF(2F)6; αMeL13; K17((2-[2-(2-Amino-ethoxy)-ethoxy]-acetyl)2-(γ-Glu)-CO-(CH2)18-CO2H); Aib20; D-Glu24; C-terminal NH2) [Example 212] please.
A: 205 nM

Q: Bench note: what Ki did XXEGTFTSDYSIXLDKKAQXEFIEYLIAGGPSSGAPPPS (D-Tyr1; Aib2; αMeL13; K17((2-[2-(2-Amino-ethoxy)-ethoxy]-acetyl)2-(γ-Glu)-CO-(CH2)18-CO2H); Aib20; C-terminal NH2) [Example 290] show?
A: 308 nM

Q: What Ki value was documented for this binder, YXEGTXTSDXSIXLDXKAQXEFIXXLIEGGPSSG (Aib2; αMeF(2F)6; 4Pal10; αMeL13; Orn16; K17((2-[2-(2-Amino-ethoxy)-ethoxy]-acetyl)2-(γ-Glu)-CO-(CH2)16-CO2H); Aib20; D-Glu24; αMeY25; C-terminal NH2) [Example 264] ?
A: 388 nM

Q: Item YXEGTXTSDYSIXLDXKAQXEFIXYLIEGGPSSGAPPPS (Aib2; αMeF(2F)6; Aib13; Orn16; K17((2-[2-(2-Amino-ethoxy)-ethoxy]-acetyl)2-(γ-Glu)-CO-(CH2)18-CO2H); Aib20; D-Glu24; C-terminal NH2) [Example 250] has what recorded Ki?
A: 198 nM
